Biological target: Monoamine oxidase (Rattus norvegicus, UniProt P19643+P21396)
Sequence (P19643 whole entry): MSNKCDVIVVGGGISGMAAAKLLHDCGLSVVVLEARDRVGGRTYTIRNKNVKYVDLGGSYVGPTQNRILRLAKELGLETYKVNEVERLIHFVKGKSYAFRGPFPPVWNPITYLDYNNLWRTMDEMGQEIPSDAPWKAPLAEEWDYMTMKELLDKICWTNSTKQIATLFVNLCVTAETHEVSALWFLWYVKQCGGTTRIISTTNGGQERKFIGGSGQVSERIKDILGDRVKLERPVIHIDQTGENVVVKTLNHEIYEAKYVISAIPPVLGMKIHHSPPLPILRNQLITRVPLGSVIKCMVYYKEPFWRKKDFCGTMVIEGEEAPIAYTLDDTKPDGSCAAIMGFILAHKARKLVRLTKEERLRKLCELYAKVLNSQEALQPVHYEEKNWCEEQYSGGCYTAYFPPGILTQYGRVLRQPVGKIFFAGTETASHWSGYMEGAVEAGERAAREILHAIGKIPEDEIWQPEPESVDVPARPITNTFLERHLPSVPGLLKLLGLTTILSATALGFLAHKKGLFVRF
Sequence (P21396 whole entry): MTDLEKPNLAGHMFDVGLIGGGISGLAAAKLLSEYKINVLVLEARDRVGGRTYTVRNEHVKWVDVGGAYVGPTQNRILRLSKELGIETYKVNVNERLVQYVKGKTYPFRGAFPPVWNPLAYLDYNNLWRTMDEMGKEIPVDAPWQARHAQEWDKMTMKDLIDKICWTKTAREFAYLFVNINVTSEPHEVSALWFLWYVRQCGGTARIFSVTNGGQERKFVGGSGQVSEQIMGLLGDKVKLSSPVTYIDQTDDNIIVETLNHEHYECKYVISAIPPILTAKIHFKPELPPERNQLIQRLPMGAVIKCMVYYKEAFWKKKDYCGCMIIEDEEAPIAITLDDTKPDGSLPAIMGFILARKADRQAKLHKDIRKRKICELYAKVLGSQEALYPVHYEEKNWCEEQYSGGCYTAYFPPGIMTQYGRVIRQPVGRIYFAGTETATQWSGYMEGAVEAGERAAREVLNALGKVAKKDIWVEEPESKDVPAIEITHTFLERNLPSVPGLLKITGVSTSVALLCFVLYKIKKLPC
Test: Inhibition of rat liver MAO-A/MAO-B after 30 mins by coupled colorimetric method
property: log10(IC50) (log10 of the value in µM)

[[record]]
compound = "CN(N)[C@@H](c1ccccc1)[C@H](O)c1ccccc1"
test_system = "Monoamine oxidase (Rattus norvegicus, UniProt P19643+P21396)"
property = "log10(IC50)"
reading = 1.85

[[record]]
compound = "NNC[C@@H](O)c1ccccc1"
test_system = "Monoamine oxidase (Rattus norvegicus, UniProt P19643+P21396)"
property = "log10(IC50)"
reading = 0.99

[[record]]
compound = "CCCC(NN)C(O)c1ccccc1 (mixture of isomers)"
test_system = "Monoamine oxidase (Rattus norvegicus, UniProt P19643+P21396)"
property = "log10(IC50)"
reading = 1.04

[[record]]
compound = "CN(N)[C@@H](c1ccccc1)[C@@H](O)c1ccccc1"
test_system = "Monoamine oxidase (Rattus norvegicus, UniProt P19643+P21396)"
property = "log10(IC50)"
reading = 1.93

[[record]]
compound = "NNC[C@H](O)c1ccccc1"
test_system = "Monoamine oxidase (Rattus norvegicus, UniProt P19643+P21396)"
property = "log10(IC50)"
reading = 1.00

[[record]]
compound = "CN(N)[C@H](c1ccccc1)[C@@H](O)c1ccccc1"
test_system = "Monoamine oxidase (Rattus norvegicus, UniProt P19643+P21396)"
property = "log10(IC50)"
reading = 2.02

[[record]]
compound = "NN[C@@H](c1ccccc1)[C@H](O)c1ccccc1 (relative stereo)"
test_system = "Monoamine oxidase (Rattus norvegicus, UniProt P19643+P21396)"
property = "log10(IC50)"
reading = 1.53

[[record]]
compound = "CN(N)[C@H](c1ccccc1)[C@H](O)c1ccccc1"
test_system = "Monoamine oxidase (Rattus norvegicus, UniProt P19643+P21396)"
property = "log10(IC50)"
reading = 2.00


----------
Molecular target: Amine oxidase [copper-containing] 3 (Homo sapiens)
Sequence (Q16853 whole entry): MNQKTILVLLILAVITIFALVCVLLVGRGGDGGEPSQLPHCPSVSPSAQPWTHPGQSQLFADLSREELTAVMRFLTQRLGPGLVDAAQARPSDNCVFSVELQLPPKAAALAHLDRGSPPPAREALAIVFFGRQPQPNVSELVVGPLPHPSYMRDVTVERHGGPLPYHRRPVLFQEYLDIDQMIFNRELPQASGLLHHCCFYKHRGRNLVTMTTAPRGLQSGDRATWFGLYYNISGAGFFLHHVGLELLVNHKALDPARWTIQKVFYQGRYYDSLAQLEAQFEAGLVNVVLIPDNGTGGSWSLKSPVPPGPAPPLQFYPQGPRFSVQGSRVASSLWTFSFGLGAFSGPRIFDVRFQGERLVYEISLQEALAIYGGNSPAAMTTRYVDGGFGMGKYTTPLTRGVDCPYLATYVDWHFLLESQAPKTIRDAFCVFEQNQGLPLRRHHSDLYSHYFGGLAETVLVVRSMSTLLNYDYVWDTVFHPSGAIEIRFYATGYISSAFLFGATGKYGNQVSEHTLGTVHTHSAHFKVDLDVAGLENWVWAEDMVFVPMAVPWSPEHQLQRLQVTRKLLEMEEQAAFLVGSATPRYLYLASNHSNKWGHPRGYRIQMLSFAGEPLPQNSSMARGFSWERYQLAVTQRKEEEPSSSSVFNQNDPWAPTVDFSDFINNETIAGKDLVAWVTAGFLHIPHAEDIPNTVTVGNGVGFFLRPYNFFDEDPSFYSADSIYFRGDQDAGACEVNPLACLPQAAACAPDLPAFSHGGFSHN
Assay: Inhibition of human recombinant VAP-1 expressed in CHO cells after 30 mins by coupled colorimetric method
pIC50: −log10 of the molar value.
Below, each of the compounds is paired with its reported pIC50 value.
property: pIC50

[[record]]
compound = "CN(N)[C@H](c1ccccc1)[C@H](O)c1ccccc1"
reading = 5.97

[[record]]
compound = "CCCC(NN)C(O)c1ccccc1 (mixture of isomers)"
reading = 5.92

[[record]]
compound = "CN(N)[C@H](c1ccccc1)[C@@H](O)c1ccccc1"
reading = 6.48

[[record]]
compound = "NNC[C@H](O)c1ccccc1"
reading = 7.40

[[record]]
compound = "CN(N)[C@@H](c1ccccc1)[C@H](O)c1ccccc1"
reading = 6.55

[[record]]
compound = "CN(N)[C@@H](c1ccccc1)[C@@H](O)c1ccccc1"
reading = 5.93

[[record]]
compound = "NNC[C@@H](O)c1ccccc1"
reading = 6.82

[[record]]
compound = "NN[C@@H](c1ccccc1)[C@H](O)c1ccccc1 (relative stereo)"
reading = 4.30


----------
assay: Selectivity ratio, ratio of IC50 for rat liver MAO-A/MAO-B to IC50 for human recombinant VAP-1
Reported Ratio IC50 values for a set of molecules
property: Ratio IC50

[[record]]
molecule = "NN[C@@H](c1ccccc1)[C@H](O)c1ccccc1 (relative stereo)"
reading = 0.7

[[record]]
molecule = "NNC[C@H](O)c1ccccc1"
reading = 250

[[record]]
molecule = "NNC[C@@H](O)c1ccccc1"
reading = 65

[[record]]
molecule = "CN(N)[C@@H](c1ccccc1)[C@H](O)c1ccccc1"
reading = 250

[[record]]
molecule = "CN(N)[C@H](c1ccccc1)[C@@H](O)c1ccccc1"
reading = 320

[[record]]
molecule = "CCCC(NN)C(O)c1ccccc1 (mixture of isomers)"
reading = 9

[[record]]
molecule = "CN(N)[C@@H](c1ccccc1)[C@@H](O)c1ccccc1"
reading = 72

[[record]]
molecule = "CN(N)[C@H](c1ccccc1)[C@H](O)c1ccccc1"
reading = 90

